tested on: protease of hake flesh with jellied condition; test: Inhibition of protease in aqueous extract of hake meat with jellied condition (urea-denatured hemoglobin substrate, Folin method); assay type: biochemical; conditions: concentration 0.01%; 40° C., 5 minutes, pH 3
# inhibition ratio (%) listing for each entry below

# count of solved cases: 6
* OCl [hypochlorous acid] | 88.5%
* OCl [sodium hypochlorite] | 87.8%
* [O][Cl+][O-] [chlorine dioxide] | 100.0%
* OO [hydrogen peroxide] | 100.0%
* [Ca+2].[O-]Cl.[O-]Cl [calcium hypochlorite] | 98.1%
* O=C(OOC(=O)c1ccccc1)c1ccccc1 [benzoyl peroxide] | 82.3%

Give the reported inhibition ratio (%) for this compound. O=[N+]([O-])[O-].[K+] [potassium nitrate, reference compound] -1.4%

Give the reported inhibition ratio (%) for this compound. N.O.O.O.O.O.O.O.O.O.O.O.O.O=S(=O)([O-])O.O=S(=O)([O-])[O-].[Al+3] [ammonium alum] 89.8%

Give the reported inhibition ratio (%) for this compound. [O]=[Ca] [calcium oxide] 100.0%
